experiment: yeast growth modulation, basal conditions, primary screen, YJM789 clinical isolate, OD600, 24 h (AID 1089);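 also: growth of clinical yeast isolate S. cerevisiae YJM 789 seeded 1000 cells per well; test concentration not given here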; conditions: S. cerevisiae YJM789 growth, higher = more signal, called active from +8 up or from −8 down

{"Molecule": "C=CCNC(=O)[C@H]1[C@@H]2C(=O)O[C@@H](c3ccccc3)[C@@H](c3ccccc3)N2[C@@H](c2ccc(OCCO)cc2)[C@]12C(=O)Nc1ccc(C#CCNC(N)=O)cc12", "z-score": 2.34}
{"Molecule": "COC(=O)[C@@]1(Cc2ccc(F)cc2)[C@H]2c3cc(C(=O)N(C)C)n(Cc4c(CO)[nH]cc(C)c4=O)c3C[C@H]2CN1C(=O)c1ccccc1", "z-score": 0.342}
{"Molecule": "COc1cc(C(O)C2C=CC3C(=O)N(Cc4ccccc4)C(=O)C3N2n2cnnc2)cc(OC)c1OC (configuration not stated)", "z-score": -1.3}
{"Molecule": "COC(=O)C(CC#Cc1ccc2c(c1)[C@]1(C(=O)N2)[C@H](c2ccc(OCCO)cc2)N2[C@H](c3ccccc3)[C@H](c3ccccc3)OC(=O)[C@H]2[C@@H]1C(=O)N1CCN(c2ncccn2)CC1)C(=O)OC", "z-score": 0.722}
{"Molecule": "CN1C(=O)C2C=CC(C(O)c3cc(C(F)(F)F)cc(C(F)(F)F)c3)N(NC(=O)OC(C)(C)C)C2C1=O (configuration not stated)", "z-score": -0.403}
{"Molecule": "NCCCCCNC(=O)[C@@H]1C[C@@H]2C(=O)N3CCC[C@H]3C(=O)N2[C@@H]1c1ccc(O)cc1", "z-score": 0.758}
{"Molecule": "O=C1N(CCS(=O)(=O)c2ccccc2)Cc2ccccc2[C@@H]2OC(c3ccc(OCCCO)cc3)=N[C@]12CCS(=O)(=O)c1ccccc1", "z-score": 2.61}
